Tested on: K-562 leukemia
Assay: NCI tumour cell line growth inhibition, 48 h
quantity: GI50

The compound COC(=O)C(C)NP(=O)(OCc1cccc(Cn2cnc3c(N)ncnc32)c1)Oc1ccccc1 (stereo not given) showed GI50 equal to > 100000 nM

Quick note, GI50 for COc1ccc(-n2c(=O)c3ccccc3n(Cc3ccc(C(=O)NO)cc3)c2=O)cc1 landed at 3110 nM

The compound identified as CCOC(=O)c1c(Cl)c2c(n1Cc1ccccc1)-c1oncc1CCC2 registered its GI50 at 3680 nM

Notebook: Cn1cc(-c2ccc3c(c2)ncn3-c2cc(NS(=O)(=O)C3CC3)cc(-c3ccc(F)cc3F)c2)cn1 , GI50 read as 4310 nM

GI50 reported for this compound O=[N+]([O-])c1ccc(N/N=C\c2cc(Br)ccc2O)nc1 : 612 nM

Reported GI50 ( O=C1NC(=NCc2cccs2)O/C1=C\c1ccc2ncccc2c1 ) = 7310 nM

Reported GI50 for COc1ccc([C@@H]2[C@@H](Oc3ccccc3)C(=O)N2c2cc(OC)c(OC)c(OC)c2)cc1F was 41.7 nM

For N#C[Se]CCN1C(=O)c2ccccc2C1=O the compound record lists GI50 as 2350 nM

Kindly note the recorded GI50 for CCOC(=O)C#Cc1c(C(=O)OCC)nnn1[C@@H]1O[C@H](COC)[C@@H](OC)[C@H]1OC , which is 1850 nM

Quick note, GI50 for O=C1Nc2ccc(Cl)cc2/C1=N/c1nc(-c2ccc(Cl)cc2)cs1 landed at 1600 nM
